Value source: PubChem BioAssay AID504840

- target-or-test-system: High affinity choline transporter 1 (Homo sapiens) (UniProt Q9GZV3)
- Sequence (Q9GZV3 whole entry, looked up): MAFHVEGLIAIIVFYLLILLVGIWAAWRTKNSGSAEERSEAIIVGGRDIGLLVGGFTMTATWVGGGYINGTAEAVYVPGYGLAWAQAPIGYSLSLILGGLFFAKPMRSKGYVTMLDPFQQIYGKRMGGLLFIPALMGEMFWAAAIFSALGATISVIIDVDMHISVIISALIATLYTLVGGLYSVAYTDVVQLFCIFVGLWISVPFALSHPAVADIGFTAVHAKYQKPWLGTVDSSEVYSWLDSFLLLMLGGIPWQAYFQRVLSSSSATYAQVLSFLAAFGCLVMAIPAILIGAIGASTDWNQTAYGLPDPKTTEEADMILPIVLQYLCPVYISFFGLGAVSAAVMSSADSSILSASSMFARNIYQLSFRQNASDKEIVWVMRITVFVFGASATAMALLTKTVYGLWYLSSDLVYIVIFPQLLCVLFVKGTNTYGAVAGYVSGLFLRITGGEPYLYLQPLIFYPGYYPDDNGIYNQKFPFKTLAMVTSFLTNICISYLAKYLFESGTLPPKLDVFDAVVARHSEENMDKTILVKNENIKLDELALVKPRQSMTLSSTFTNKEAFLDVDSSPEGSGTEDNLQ
- test-summary: human choline transporter blockers, potency – cell-based, 5-point CRC, membrane potential dye, dose response (AID 504840)
- measurement-context: HEK293-CHT, choline-induced depolarization, CHT with LV-to-AA double alanine mutation; series mostly up to 37 µM
Hit rate of the full screen: of about 1,500 compounds, about 890 (59%) were called active. So high a share suggests a set chosen from earlier hits. A selection follows. Results with a measured potency or affinity are listed apart.
experimental-endpoint: outcome

Recorded results for 10 compounds are shown here.
* C#CC[N+](CC)(CC)CC#Cc1ccccc1 | inactive
* CS(=O)(=O)n1nc(OC(=O)c2cccc3ccccc23)cc1N | inactive
* Cc1onc(-c2ccccc2)c1C(=O)NNC(=S)NC(=O)c1ccc(Br)cc1 | inactive
* COc1cccc(N2C(=O)N(c3ccccc3)C3CS(=O)(=O)CC32)c1 (configuration not stated) | inactive
* O=C(NNc1ccc([N+](=O)[O-])cc1[N+](=O)[O-])c1ccco1 | inactive
* CCOc1cc2[nH]c(=S)n(C(C)C)c(=O)c2cc1OCC | inactive
* CSC1=C(C#N)C(c2ccncc2)C(C(=O)Nc2ccccc2)=C(C)N1 (configuration not stated) | inactive
* O/N=C/c1ccnc(SCc2ccccc2)n1 | inactive
* CC1=C(C(=O)Nc2cccc(C(=O)NC3CCCC(C)C3C)c2)SCCO1 (configuration not stated) | inactive
* Cc1ccc2c(c1)N(S(=O)(=O)c1ccc(CN3C(=O)c4cccnc4C3=O)s1)CCO2 | inactive

Data request: What outcome value was documented for this compound, `O=C1CSC(=S)N1/N=C/c1c(F)cccc1F` ?
Data returned: inactive

Data request: Same for `CCCc1cc(C(=O)Cc2ccc(F)cc2)c(O)cc1O`
Data returned: inactive

Data request: Same for `CCOc1ccc([C@@H]2CC=C(C(=O)O)[C@H](c3cccc(Cl)c3)N2S(=O)(=O)c2ccc(C)cc2)cc1`
Data returned: inactive

Data request: Same for `CCCOc1ccc(C(=O)NC(=S)NNC(=O)c2c(-c3ccccc3)noc2C)cc1`
Data returned: inactive

Data request: Same for `COc1ccccc1C(=O)NC1CCN(C(=S)NCCc2ccccc2)CC1`
Data returned: inactive

Data request: Same for `CCCOc1ccc(C(=O)NNC(=S)NC(=O)c2ccccc2)cc1`
Data returned: inactive

Data request: Same for `CCOCCCn1c(=S)[nH]c2cc(C(=O)N3CCN(C4CCCCC4)CC3)ccc2c1=O`
Data returned: inactive

Data request: Same for `COc1cccc(C(=O)NN/C(C)=C/C(=O)C(F)(F)C(F)(F)C(F)(F)F)c1`
Data returned: inactive

Data request: Same for `Cc1c(NC(=S)NC(=O)c2ccc(-c3ccc(Cl)cc3)o2)cccc1C(=O)O`
Data returned: inactive

Data request: Same for `COc1ccc(C(=O)NNC(=S)NC(=O)c2ccccc2)cc1`
Data returned: inactive

Data request: Same for CC(C)c1cc(C(=O)N2CCCC(CCC(=O)N3CCN(c4ccccn4)CC3)C2)no1 (configuration not stated)
Data returned: inactive

Data request: Same for `CCn1c(N2CCN(S(=O)(=O)c3ccc(Cl)cc3)CC2)nc2ccccc21`
Data returned: inactive
